- ASSAY_EXPLANATION: Selectivity index, ratio of IC50 for African green monkey Vero cells to MIC for Cryptococcus neoformans ATCC 24067
- Type: toxicity, cell-based
OBSERVED_PROPERTY: selectivity ratio

Challenge: Look at this compound and give its reported selectivity ratio. C[C@@H]1[C@H](O)[C@@H](C)/C=C/C=C/C=C/C=C/C=C/C=C/C=C/[C@H](O[C@@H]2O[C@H](C)[C@@H](O)[C@H](N)[C@@H]2O)C[C@@H]2O[C@](O)(C[C@@H](O)C[C@@H](O)[C@H](O)CC[C@@H](O)C[C@@H](O)CC(=O)O[C@H]1C)C[C@H](O)[C@H]2C(=O)O
Response given: 206

Challenge: Look at this compound and give its reported selectivity ratio. COc1ccc(-c2csc(N/N=C/C3CCCCC3)n2)cc1
Response given: 52.6

Challenge: Look at this compound and give its reported selectivity ratio. C(=C1/CCCC/C1=N\Nc1nc(-c2ccccc2)cs1)/c1ccccc1
Response given: 6.41

Challenge: Look at this compound and give its reported selectivity ratio. c1ccc(-c2csc(NN=C3CCCC3)n2)cc1
Response given: 29

----------
- Test system: Cryptococcus neoformans
- ASSAY_EXPLANATION: Antifungal activity against Cryptococcus neoformans ATCC 62066 after 48 to 72 hrs by broth microdilution method
- Type: functional
OBSERVED_PROPERTY: MIC (µM)
Number in µM, nothing else.

Challenge: Look at this compound and give its reported MIC. COc1ccc(-c2csc(N/N=C(\C)CCO)n2)cc1
Response given: 0.6

Challenge: Look at this compound and give its reported MIC. OC(Cn1cncn1)(Cn1cncn1)c1ccc(F)cc1F
Response given: 13

Challenge: Look at this compound and give its reported MIC. c1ccc(-c2csc(NN=C3CCCC3)n2)cc1
Response given: 1.2

Challenge: Look at this compound and give its reported MIC. COc1ccc(-c2csc(N/N=C/C3CCCCC3)n2)cc1
Response given: 1.9

Challenge: Look at this compound and give its reported MIC. C(=N\Nc1nc(-c2ccccc2)cs1)/C1CCCCC1
Response given: 1.2

Challenge: Look at this compound and give its reported MIC. C[C@@H]1[C@H](O)[C@@H](C)/C=C/C=C/C=C/C=C/C=C/C=C/C=C/[C@H](O[C@@H]2O[C@H](C)[C@@H](O)[C@H](N)[C@@H]2O)C[C@@H]2O[C@](O)(C[C@@H](O)C[C@@H](O)[C@H](O)CC[C@@H](O)C[C@@H](O)CC(=O)O[C@H]1C)C[C@H](O)[C@H]2C(=O)O
Response given: 0.03

----------
- Test system: Cryptococcus gattii species complex
- ASSAY_EXPLANATION: Ratio of compound MIC for Cryptococcus gattii L27/01 in presence of amphotericin B to compound MIC for Cryptococcus gattii L27/01 in absence of amphotericin B by checkerboard microtiter test
- Type: functional, Cryptococcus bacillisporus
Exercise: for every item that follows, state its recorded fractional inhibitory concentration index (FICI).
Answer field: number only, no words.

Challenge: Look at this compound and give its reported fractional inhibitory concentration index (FICI). COc1ccc(-c2csc(N/N=C/C3CCCCC3)n2)cc1
Response given: 2.66

Challenge: Look at this compound and give its reported fractional inhibitory concentration index (FICI). COc1ccc(-c2csc(N/N=C(\C)CCO)n2)cc1
Response given: 4.61

Challenge: Look at this compound and give its reported fractional inhibitory concentration index (FICI). C(=N\Nc1nc(-c2ccccc2)cs1)/C1CCCCC1
Response given: 1.34

Challenge: Look at this compound and give its reported fractional inhibitory concentration index (FICI). c1ccc(-c2csc(NN=C3CCCC3)n2)cc1
Response given: 2.48
